Reference source for all entries: patent US6926763B2

assay: in vitro; assay type: in vitro ADME; settings: human, Caco-2
experimental.endpoint: Papp

Previously resolved entries follow.
CNC(=C[N+](=O)[O-])NCCSCc1ccc(CN(C)C)o1 [Ranitidine, reference compound]: 0.27 ×10⁻⁶ cm/s
CCc1cc(Nc2nc3ncn(CCCCCO)c3c(=O)[nH]2)ccc1C [Compound 20]: 0.62 ×10⁻⁶ cm/s

Pending molecule:
Problem: // Papp lookup, key: CCc1cc(Nc2nc3ncn(CCCCCOC(C)=O)c3c(=O)[nH]2)ccc1C [Compound 19]
Solution: 0.58 ×10⁻⁶ cm/s

* * *

Listing of entries alongside the reported MIC, S.a. (Smith).
system: S.a. (Smith); experiment: Inhibition of bacterial growth (agar plate MIC), S.a. (Smith); format: cell-based, Staphylococcus aureus; conditions: agar plates, 37° C., 24 hours
Give the value in µg/mL but do not write µg/mL after it.

CCc1cc(Nc2nc3ncn(CCCCCN4CCC(O)(c5ccc(Cl)c(C(F)(F)F)c5)CC4)c3c(=O)[nH]2)ccc1C: 5
O=c1[nH]c(NCc2ccc(Cl)c(Cl)c2)cc2ncn(CCCCCN3CCOCC3)c12: 20
CCc1cc(Nc2cc3ncn(CCCCN4CCOCC4)c3c(=O)[nH]2)ccc1C: 40

Problem: // returns reported MIC, S.a. (Smith) for input O=c1[nH]c(NCc2ccc(Cl)c(Cl)c2)cc2[nH]cnc12
Solution: 80

Problem: Given the molecule O=c1[nH]c(NCc2ccc(Cl)c(Cl)c2)cc2ncn(CCCCN3CCOCC3)c12 , what is its reported MIC, S.a. (Smith)?
Solution: 10

* * *

test system: Enterococcus fecium; assay: Inhibition of bacterial growth (agar plate MIC), E. fecium; format: cell-based; details: agar plates, 37° C., 24 hours
experimental.endpoint: MIC, E. fecium (mg/L)
Express your answer in mg/L, writing the number without its unit.

// known answers, use as guide
CCc1cc(Nc2cc3ncn(CCCCN4CCOCC4)c3c(=O)[nH]2)ccc1C: 20
CCc1cc(Nc2nc3ncn(CCCCCN4CCC(O)(c5ccc(Cl)c(C(F)(F)F)c5)CC4)c3c(=O)[nH]2)ccc1C: 5
O=c1[nH]c(NCc2ccc(Cl)c(Cl)c2)cc2[nH]cnc12: 40
O=c1[nH]c(NCc2ccc(Cl)c(Cl)c2)cc2ncn(CCCCN3CCOCC3)c12: 15

Problem: Identify the measured MIC, E. fecium of O=c1[nH]c(NCc2ccc(Cl)c(Cl)c2)cc2ncn(CCCCCN3CCOCC3)c12 for Enterococcus fecium.
Solution: 20

* * *

molecular target: B.s. pol IIIE (Bacillus subtilis, UniProt O34623); test: biochemical; assay type: biochemical
Sequence (O34623 whole entry, the tested form may be a part): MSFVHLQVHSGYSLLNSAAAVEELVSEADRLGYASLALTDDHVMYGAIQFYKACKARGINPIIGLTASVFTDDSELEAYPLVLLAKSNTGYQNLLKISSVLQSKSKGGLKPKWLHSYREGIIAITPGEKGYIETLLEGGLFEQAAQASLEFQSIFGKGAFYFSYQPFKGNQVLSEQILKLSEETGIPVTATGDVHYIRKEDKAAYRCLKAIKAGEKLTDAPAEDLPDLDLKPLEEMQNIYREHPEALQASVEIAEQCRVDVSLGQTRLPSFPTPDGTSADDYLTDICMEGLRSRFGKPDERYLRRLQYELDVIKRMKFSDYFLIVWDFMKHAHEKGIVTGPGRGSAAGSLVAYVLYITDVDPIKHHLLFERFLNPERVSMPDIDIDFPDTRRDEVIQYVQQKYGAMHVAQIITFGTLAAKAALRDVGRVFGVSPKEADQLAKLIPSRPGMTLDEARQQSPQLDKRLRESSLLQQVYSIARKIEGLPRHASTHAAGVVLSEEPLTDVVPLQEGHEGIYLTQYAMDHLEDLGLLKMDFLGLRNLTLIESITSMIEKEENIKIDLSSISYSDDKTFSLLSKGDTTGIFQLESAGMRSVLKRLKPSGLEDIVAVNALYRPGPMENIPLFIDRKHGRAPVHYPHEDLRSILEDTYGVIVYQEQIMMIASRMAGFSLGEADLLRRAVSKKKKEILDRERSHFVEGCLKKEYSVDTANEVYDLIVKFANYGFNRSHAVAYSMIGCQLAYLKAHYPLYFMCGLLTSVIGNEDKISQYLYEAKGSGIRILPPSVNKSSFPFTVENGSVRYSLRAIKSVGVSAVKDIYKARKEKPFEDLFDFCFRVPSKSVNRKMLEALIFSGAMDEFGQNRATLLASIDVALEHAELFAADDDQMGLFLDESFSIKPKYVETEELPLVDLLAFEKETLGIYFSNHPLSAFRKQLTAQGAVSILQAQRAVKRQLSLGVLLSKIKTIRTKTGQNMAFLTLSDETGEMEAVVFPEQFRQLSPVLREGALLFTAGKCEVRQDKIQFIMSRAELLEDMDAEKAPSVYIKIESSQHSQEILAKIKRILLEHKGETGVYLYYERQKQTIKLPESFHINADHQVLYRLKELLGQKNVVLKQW
Kindly apply the following: label 1 if Ki is less than 400000 nM, label 0 in every other case.

COCCCCn1cnc2cc(NCc3ccc(Cl)c(Cl)c3)[nH]c(=O)c21: label 1

Shift focus to the following entry.
Problem: Lab note: confirm whether the reported Ki for this compound is below 400000 nM, equality not counting. compound: O=c1[nH]c(NCc2ccc(Cl)c(Cl)c2)nc2ncn(CCCCCI)c12
Solution: label 1

* * *

Below, each of the compounds is paired with its reported Ki value.
target: B.s. pol IIIC (Bacillus subtilis); assay: biochemical; format: biochemical
Form entry: value (nM) — number only.

Before answering, review these 5 worked examples.
CCc1cc(Nc2nc3ncn(CCCCCOC)c3c(=O)[nH]2)ccc1C [Compound 22]: 260
COCCCCn1cnc2cc(NCc3ccc(Cl)c(Cl)c3)[nH]c(=O)c21 [Compound 2]: 190
COCCCCCn1cnc2cc(NCc3ccc(Cl)c(Cl)c3)[nH]c(=O)c21 [Compound 3]: 160
COCCCCn1c(C)nc2cc(NCc3ccc(Cl)c(Cl)c3)[nH]c(=O)c21 [Compound 6]: 1250
CCc1cc(Nc2cc3ncn(CCCCOC)c3c(=O)[nH]2)ccc1C [Compound 15]: 1500

Problem: Give the reported Ki for O=c1[nH]c(NCc2ccc(Cl)c(Cl)c2)nc2ncn(CCCCCI)c12 [Compound 13] (system: B.s. pol IIIC (Bacillus subtilis)).
Solution: 70

Problem: Find the measured Ki: item CCc1cc(Nc2cc3ncn(CCCCCOC)c3c(=O)[nH]2)ccc1C [Compound 17] , target or system B.s. pol IIIC (Bacillus subtilis).
Solution: 690

* * *

Readings of MIC, MRSA (B42876) for the listed compounds
tested on: MRSA (B42876); assay: Inhibition of bacterial growth (agar plate MIC), MRSA (B42876); format: cell-based, methicillin-resistant S.a.; conditions: agar plates, 37° C., 24 hours
Numeric only. Scale: µg/mL

O=c1[nH]c(NCc2ccc(Cl)c(Cl)c2)cc2[nH]cnc12 [Compound 1]: 80
O=c1[nH]c(NCc2ccc(Cl)c(Cl)c2)cc2ncn(CCCCCN3CCOCC3)c12 [Compound 5]: 20
CCc1cc(Nc2cc3ncn(CCCCN4CCOCC4)c3c(=O)[nH]2)ccc1C [Compound 16]: 30
O=c1[nH]c(NCc2ccc(Cl)c(Cl)c2)cc2ncn(CCCCN3CCOCC3)c12 [Compound 4]: 20

Problem: Requested read-out: MIC, MRSA (B42876). Entry: CCc1cc(Nc2nc3ncn(CCCCCN4CCC(O)(c5ccc(Cl)c(C(F)(F)F)c5)CC4)c3c(=O)[nH]2)ccc1C [Compound 23]
Solution: 5

* * *

target: B.s. pol IIIE (Bacillus subtilis, UniProt O34623); test: biochemical; format: biochemical; settings: truncated assay without dGTP; apparent Ki; read-out: Ki, B.s. pol IIIE
Each entry below carries its recorded Ki.
Field format: number, assumed nM, no unit text.

Recorded Ki, per entry:
O=c1[nH]c(NCc2ccc(Cl)c(Cl)c2)cc2ncn(CCCCCN3CCOCC3)c12: 290
O=c1[nH]c(NCc2ccc(Cl)c(Cl)c2)cc2[nH]cnc12: 2500
O=c1[nH]c(NCc2ccc(Cl)c(Cl)c2)cc2ncn(CCCCN3CCOCC3)c12: 200

Problem: Value wanted: Ki (B.s. pol IIIE (Bacillus subtilis, UniProt O34623)) of entry CCc1cc(Nc2nc3ncn(CCCCCN4CCC(O)(c5ccc(Cl)c(C(F)(F)F)c5)CC4)c3c(=O)[nH]2)ccc1C
Solution: 38000

* * *

Below, each entry is listed alongside its reported pKi.
Biological target: E.c. pol IIIE (Escherichia coli, UniProt P10443)
Sequence (P10443 whole entry): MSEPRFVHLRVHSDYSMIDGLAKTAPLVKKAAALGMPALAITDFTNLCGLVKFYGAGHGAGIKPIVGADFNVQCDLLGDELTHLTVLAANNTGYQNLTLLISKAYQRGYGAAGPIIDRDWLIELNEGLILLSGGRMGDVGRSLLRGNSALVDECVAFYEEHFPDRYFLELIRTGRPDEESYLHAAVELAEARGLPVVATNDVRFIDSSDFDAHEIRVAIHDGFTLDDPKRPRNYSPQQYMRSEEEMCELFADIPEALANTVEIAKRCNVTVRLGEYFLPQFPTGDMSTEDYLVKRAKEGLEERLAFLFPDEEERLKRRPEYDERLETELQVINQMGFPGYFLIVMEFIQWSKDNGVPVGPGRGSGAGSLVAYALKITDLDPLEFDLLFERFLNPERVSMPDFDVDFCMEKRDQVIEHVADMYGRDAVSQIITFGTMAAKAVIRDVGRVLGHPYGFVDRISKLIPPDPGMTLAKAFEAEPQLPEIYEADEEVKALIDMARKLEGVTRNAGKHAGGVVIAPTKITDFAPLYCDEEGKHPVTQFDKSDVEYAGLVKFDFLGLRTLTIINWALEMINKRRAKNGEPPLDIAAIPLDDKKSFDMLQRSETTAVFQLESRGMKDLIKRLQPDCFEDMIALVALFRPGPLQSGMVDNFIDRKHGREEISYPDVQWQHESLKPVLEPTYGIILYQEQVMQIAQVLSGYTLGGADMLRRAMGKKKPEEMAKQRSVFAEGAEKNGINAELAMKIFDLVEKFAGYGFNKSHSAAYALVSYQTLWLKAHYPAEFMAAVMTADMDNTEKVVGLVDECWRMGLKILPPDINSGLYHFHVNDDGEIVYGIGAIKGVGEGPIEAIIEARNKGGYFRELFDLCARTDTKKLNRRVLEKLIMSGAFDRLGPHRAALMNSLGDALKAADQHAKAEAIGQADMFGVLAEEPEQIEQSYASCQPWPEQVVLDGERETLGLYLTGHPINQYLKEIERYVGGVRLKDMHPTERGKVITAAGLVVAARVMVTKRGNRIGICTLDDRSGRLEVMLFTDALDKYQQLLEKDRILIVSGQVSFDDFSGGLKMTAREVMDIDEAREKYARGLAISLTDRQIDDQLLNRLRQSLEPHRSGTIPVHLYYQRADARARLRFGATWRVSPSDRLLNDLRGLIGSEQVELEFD
Assay: biochemical
Text: The ability of a test compound to inhibit the activity of DNA pol IIIC or pol IIIE enzymes can be tested by using a DNA polymerase assay as described, for example, in Barnes and Brown, Nucl. […] This rapid screening method can use natural or recombinant DNA pol III enzymes in a standard DNA polymerase activity assay. By including a test compound in a side-by-side assay with a control, the effect of the test compound on polymerase activity can be assessed. […]
Here pKi is given on a logarithmic scale as minus log10 of the concentration in mol/L.

Worked cases, pKi given:
COCCCCn1c(C)nc2cc(NCc3ccc(Cl)c(Cl)c3)[nH]c(=O)c21: 3.37
COCCCCCn1cnc2cc(NCc3ccc(Cl)c(Cl)c3)[nH]c(=O)c21: 4.09
COCCCCn1cnc2cc(NCc3ccc(Cl)c(Cl)c3)[nH]c(=O)c21: 4.25

Now for a further molecule.
Problem: Please report the recorded pKi for O=c1[nH]c(NCc2ccc(Cl)c(Cl)c2)nc2ncn(CCCCCI)c12 .
Solution: 4.33

* * *

tested on: Staphylococcus aureus; assay: Inhibition of bacterial growth (agar plate MIC), S.a.; assay type: cell-based; conditions: agar plates, 37° C., 24 hours
Each entry below carries its reported MIC, S.a..
Please give a number only; it is taken to be in µg/mL.

Solved entries:
CCc1cc(Nc2nc3ncn(CCCCCN4CCC(O)(c5ccc(Cl)c(C(F)(F)F)c5)CC4)c3c(=O)[nH]2)ccc1C: 5
O=c1[nH]c(NCc2ccc(Cl)c(Cl)c2)cc2[nH]cnc12: 80
O=c1[nH]c(NCc2ccc(Cl)c(Cl)c2)cc2ncn(CCCCN3CCOCC3)c12: 20
CCc1cc(Nc2cc3ncn(CCCCN4CCOCC4)c3c(=O)[nH]2)ccc1C: 40

Would you kindly look at the next entry?
Problem: Report MIC, S.a. for O=c1[nH]c(NCc2ccc(Cl)c(Cl)c2)cc2ncn(CCCCCN3CCOCC3)c12 tested on Staphylococcus aureus.
Solution: 20

* * *

Molecular target: B.s. pol IIIC (Bacillus subtilis, UniProt P13267)
Sequence (P13267 whole entry): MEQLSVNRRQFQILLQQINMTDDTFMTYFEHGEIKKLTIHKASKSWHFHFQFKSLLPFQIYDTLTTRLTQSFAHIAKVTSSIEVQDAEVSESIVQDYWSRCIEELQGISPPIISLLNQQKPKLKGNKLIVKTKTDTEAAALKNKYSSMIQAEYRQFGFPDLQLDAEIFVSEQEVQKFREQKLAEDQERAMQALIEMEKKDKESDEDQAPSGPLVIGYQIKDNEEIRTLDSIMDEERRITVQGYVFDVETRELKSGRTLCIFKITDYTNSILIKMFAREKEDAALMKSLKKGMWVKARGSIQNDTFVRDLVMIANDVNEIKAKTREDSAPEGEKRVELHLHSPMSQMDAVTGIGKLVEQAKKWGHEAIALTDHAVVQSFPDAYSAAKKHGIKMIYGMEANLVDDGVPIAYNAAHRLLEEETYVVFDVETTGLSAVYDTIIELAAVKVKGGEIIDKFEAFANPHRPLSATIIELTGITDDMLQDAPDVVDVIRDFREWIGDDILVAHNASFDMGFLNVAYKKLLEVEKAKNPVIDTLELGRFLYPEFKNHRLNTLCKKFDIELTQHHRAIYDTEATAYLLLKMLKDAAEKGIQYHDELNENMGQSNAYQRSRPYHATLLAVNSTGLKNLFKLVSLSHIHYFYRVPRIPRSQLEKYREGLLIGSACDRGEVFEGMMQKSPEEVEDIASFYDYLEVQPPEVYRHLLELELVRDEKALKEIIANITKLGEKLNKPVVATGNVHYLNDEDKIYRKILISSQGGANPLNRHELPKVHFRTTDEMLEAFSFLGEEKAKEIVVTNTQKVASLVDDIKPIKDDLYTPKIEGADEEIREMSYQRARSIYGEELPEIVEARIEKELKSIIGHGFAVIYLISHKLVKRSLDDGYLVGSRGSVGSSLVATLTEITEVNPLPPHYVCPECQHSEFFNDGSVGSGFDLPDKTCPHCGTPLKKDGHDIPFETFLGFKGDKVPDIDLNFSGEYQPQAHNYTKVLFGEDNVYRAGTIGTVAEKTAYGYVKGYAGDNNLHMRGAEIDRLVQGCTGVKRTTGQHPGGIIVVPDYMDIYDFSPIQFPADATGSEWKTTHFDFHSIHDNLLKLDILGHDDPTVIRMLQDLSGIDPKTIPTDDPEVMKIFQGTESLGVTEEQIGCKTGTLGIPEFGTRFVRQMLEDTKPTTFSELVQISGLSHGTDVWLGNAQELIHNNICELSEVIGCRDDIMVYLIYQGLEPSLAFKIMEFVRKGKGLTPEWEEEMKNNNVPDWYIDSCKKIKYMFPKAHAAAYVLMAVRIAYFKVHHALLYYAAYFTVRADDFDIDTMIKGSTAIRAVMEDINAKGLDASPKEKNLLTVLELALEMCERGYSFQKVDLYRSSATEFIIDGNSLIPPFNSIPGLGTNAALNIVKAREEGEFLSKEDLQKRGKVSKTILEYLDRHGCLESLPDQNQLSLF
Assay: biochemical
Format: biochemical
Conditions: truncated assay without dGTP; apparent Ki; read-out: Ki, B.s. pol IIIC
Description: The ability of a test compound to inhibit the activity of DNA pol IIIC or pol IIIE enzymes can be tested by using a DNA polymerase assay as described, for example, in Barnes and Brown, Nucl. […] This rapid screening method can use natural or recombinant DNA pol III enzymes in a standard DNA polymerase activity assay. By including a test compound in a side-by-side assay with a control, the effect of the test compound on polymerase activity can be assessed. […]
experimental.endpoint: Ki (nM)
State just the number; it will be interpreted in nM.

// worked examples, Ki included
O=c1[nH]c(NCc2ccc(Cl)c(Cl)c2)nc2ncn(CCCCN3CCOCC3)c12: 51
O=c1[nH]c(NCc2ccc(Cl)c(Cl)c2)cc2ncn(CCCCN3CCOCC3)c12: 94
O=c1[nH]c(NCc2ccc(Cl)c(Cl)c2)cc2ncn(CCCCCN3CCOCC3)c12: 100
CCc1cc(Nc2cc3ncn(CCCCN4CCOCC4)c3c(=O)[nH]2)ccc1C: 1100

Problem: What Ki value was documented for this molecule, O=c1[nH]c(NCc2ccc(Cl)c(Cl)c2)nc2ncn(CCCCCO)c12 ?
Solution: 52

Problem: Can you look up the measured Ki of CCc1cc(Nc2nc3ncn(CCCCCN4CCC(O)(c5ccc(Cl)c(C(F)(F)F)c5)CC4)c3c(=O)[nH]2)ccc1C for me?
Solution: 130

Problem: Reported Ki, molecule CC(=O)OCCCCn1cnc2nc(NCc3ccc(Cl)c(Cl)c3)[nH]c(=O)c21 : ____
Solution: 66

Problem: Quick check: Ki of CC(=O)OCCCCCn1cnc2nc(NCc3ccc(Cl)c(Cl)c3)[nH]c(=O)c21 ?
Solution: 52

Problem: Would you mind telling me what Ki value was observed for CCc1cc(Nc2nc3ncn(CCCCO)c3c(=O)[nH]2)ccc1C ?
Solution: 470

Problem: Need Ki, item O=c1[nH]c(NCc2ccc(Cl)c(Cl)c2)cc2[nH]cnc12
Solution: 2200

Problem: Fill in the blank: the reported Ki of O=c1[nH]c(NCc2ccc(Cl)c(Cl)c2)nc2ncn(CCCCO)c12 is ____.
Solution: 190

Problem: Bench note: what Ki did CCc1cc(Nc2nc3ncn(CCCCCO)c3c(=O)[nH]2)ccc1C show?
Solution: 280
